Reference source: patent EP0870197B2

- Tested Target: catalytic domain of stromelysin (Homo sapiens)
- Construct: expression construct coding for amino acid residues 81-256 plus an initiating methionine; initiating methionine (N); made in house; host or cells: E. coli BL21(DE3)/pLysS, pET3d
- Assay Procedure: two-dimensional 15N/1H NMR correlation titration, dissociation constant
- Type: binding
Property Name: Kd
Include the unit after the number when you answer.

Some entries whose results are on file:
               mol_smiles  observed_value
0  O=Cc1ccc(-c2ccccc2)cc1         1700 µM
1    Oc1ccc(-c2ccccc2)cc1          300 µM
2     c1cc(-c2ccncc2)ccn1          400 µM

Attention now turns to another entry.
Give Kd; test system catalytic domain of stromelysin (Homo sapiens); compound Oc1cccc(-c2ccccc2)c1 1100 µM

* * *

- Tested Target: catalytic domain of stromelysin (Homo sapiens, UniProt P08254)
- Construct: expression construct coding for amino acid residues 81-256 plus an initiating methionine; initiating methionine (N); made in house; host or cells: E. coli BL21(DE3)/pLysS, pET3d
- Sequence (P08254 98-273): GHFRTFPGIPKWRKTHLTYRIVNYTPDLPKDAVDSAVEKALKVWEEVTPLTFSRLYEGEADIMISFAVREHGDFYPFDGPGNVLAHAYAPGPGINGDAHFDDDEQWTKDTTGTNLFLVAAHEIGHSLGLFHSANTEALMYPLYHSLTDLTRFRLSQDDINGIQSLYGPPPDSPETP
- Assay Procedure: two-dimensional 15N/1H NMR correlation titration, dissociation constant
- Format: binding
- Study Conditions: read-out: KD
Property Name: pKd
pKd here: minus log base 10 of the concentration, concentration in moles per litre.

Supply reported pKd belonging to this molecule: c1ccc(-c2ccncc2)cc1 3.70

* * *

- Tested Target: catalytic domain of stromelysin (Homo sapiens, UniProt P08254)
- Construct: expression construct coding for amino acid residues 81-256 plus an initiating methionine; initiating methionine (N); made in house; host or cells: E. coli BL21(DE3)/pLysS, pET3d
- Assay Procedure: two-dimensional 15N/1H NMR correlation titration, dissociation constant
- Format: binding
- Study Conditions: read-out: NMR KD
Property Name: Kd (µM)
Entry rule: numbers only, all in µM.

Supply reported Kd belonging to this molecule: c1ccc(-c2ccncc2)cc1 [Compound 7] 170

* * *

- Tested Target: Stromelysin (Homo sapiens)
Property Name: IC50
Include the unit after the number when you answer.

>>> print(df.to_string())
                                   compound  property_name  observed_value
0  N#Cc1ccc(-c2ccc(OCCCCCC(=O)NO)cc2)cc1 [Compound 28]           IC50         1700 nM

Supply reported IC50 belonging to this compound: O=C(CCOc1ccc(-c2ccccc2)cc1)NO [Compound 21] 310 nM

* * *

- Tested Target: DNA-binding domain of the E2 protein (Human papillomavirus 31, UniProt P17383)
- Construct: made in house; host or cells: bacteria, T7 expression system
- Sequence (P17383 292-372): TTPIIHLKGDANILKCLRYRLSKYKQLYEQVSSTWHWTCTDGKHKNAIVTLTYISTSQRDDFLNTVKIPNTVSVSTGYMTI
- Assay Procedure: two-dimensional 15N/1H NMR correlation titration, binding constants for two binding sites
- Study Conditions: amides of the β-barrel site; read-out: β-barrel KD
Property Name: pKd
pKd here: minus log base 10 of the concentration, concentration in moles per litre.

Some entries whose results are on file:
>>> print(df.to_string())
                                   compound  observed_value
0                O=C(O)Cc1ccc(-c2ccccc2)cc1            2.31
1  CC(CCc1ccc(Oc2ccccc2)cc1)CC(=O)O (centres unmarked)            3.70
2                  O=C(c1ccccc1)c1cccc(O)c1            3.22
3          O=C(O)CCC(=O)c1ccc(Oc2ccccc2)cc1            2.32

Give pKd; test system DNA-binding domain of the E2 protein (Human papillomavirus 31, UniProt P17383); compound O=C(O)C=Cc1ccc(-c2ccccc2)cc1 2.21

Give pKd; test system DNA-binding domain of the E2 protein (Human papillomavirus 31, UniProt P17383); compound OCc1cccc(Oc2ccccc2)c1 2.70

* * *

- Tested Target: catalytic domain of stromelysin (Homo sapiens, UniProt P08254)
- Construct: expression construct coding for amino acid residues 81-256 plus an initiating methionine; initiating methionine (N); made in house; host or cells: E. coli BL21(DE3)/pLysS, pET3d
- Assay Procedure: enzymatic assay, cleavage of a fluorogenic substrate
- Format: biochemical
- Study Conditions: read-out: Assay KI
Property Name: Ki (µM)
Entry rule: numbers only, all in µM.

Give Ki; test system catalytic domain of stromelysin (Homo sapiens, UniProt P08254); molecule c1ccc(-c2ccncc2)cc1 320
